Target: T1, RXFP1 receptor (endogenous, on OVCAR5 cells) (UniProt Q9HBX9 1-757, limits assumed)
T1 sequence (looked up): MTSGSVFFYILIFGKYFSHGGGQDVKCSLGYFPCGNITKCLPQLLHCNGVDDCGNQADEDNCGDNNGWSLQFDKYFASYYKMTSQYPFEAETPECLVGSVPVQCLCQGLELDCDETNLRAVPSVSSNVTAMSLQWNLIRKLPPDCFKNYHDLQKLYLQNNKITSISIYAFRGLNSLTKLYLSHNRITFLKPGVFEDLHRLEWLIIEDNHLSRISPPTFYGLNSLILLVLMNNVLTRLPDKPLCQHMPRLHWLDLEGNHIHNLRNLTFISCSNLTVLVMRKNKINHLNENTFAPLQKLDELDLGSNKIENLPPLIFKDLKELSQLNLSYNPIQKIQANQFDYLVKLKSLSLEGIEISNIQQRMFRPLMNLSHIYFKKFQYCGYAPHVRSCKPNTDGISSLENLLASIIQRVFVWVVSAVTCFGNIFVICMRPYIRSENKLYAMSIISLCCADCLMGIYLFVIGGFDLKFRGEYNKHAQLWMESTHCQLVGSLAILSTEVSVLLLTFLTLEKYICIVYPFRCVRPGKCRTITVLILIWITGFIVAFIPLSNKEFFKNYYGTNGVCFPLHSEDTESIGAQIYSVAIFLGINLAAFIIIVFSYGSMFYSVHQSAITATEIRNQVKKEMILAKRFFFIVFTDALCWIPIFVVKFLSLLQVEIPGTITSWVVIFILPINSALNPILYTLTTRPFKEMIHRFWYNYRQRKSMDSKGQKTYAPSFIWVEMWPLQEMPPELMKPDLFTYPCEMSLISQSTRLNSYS
Experiment: cell-based or functional assay
Starred links: 1 amine or outer side, 2 acyl side, 3 side chain; linkers in the order of their positions; H or OH if unused. Non-standard residues stand in square brackets, D forms with d. Groups on a side chain read outwards from the residue. *: point of attachment. TTDS = 4-[3-[2-[2-(3-aminopropoxy)ethoxy]ethoxy]propylamino]-4-oxo-butanoyl; γGlu = O=C(O)[C@H](CCC(=O)[*:2])N[*:1]; Stearoyl = CCCCCCCCCCCCCCCCCC(=O)*; Palmitoyl = CCCCCCCCCCCCCCCC(=O)*; Myristoyl = CCCCCCCCCCCCCC(=O)*; Cit = NC(=O)NCCC[C@H](N)C(=O)O; αMeK = C[C@](N)(CCCCN)C(=O)O; Aib = CC(C)(N)C(=O)O
Assign EMax, OVCAR 5 cells (cAMP) to each entry below.
One number for each entry, in %.

Ac-LEGREKVRAK(Ac)I[Aib][Aib]EGK([TTDS-TTDS-TTDS-TTDS-γGlu-γGlu-γGlu-Palmitoyl])STFS[αMeK]RAK(Ac)-NH2 [peptide of SEQ ID NO: 78] : 99
Ac-LEGREKVRK(Ac)QI[Aib][Aib]EGK([TTDS-TTDS-TTDS-γGlu-γGlu-γGlu-Palmitoyl])STWS[Aib]RKK(Ac)-NH2 [peptide of SEQ ID NO: 65] : 95
Ac-LEGRERVR[Aib]K(Ac)I[Aib][Aib]EGK([TTDS-TTDS-TTDS-γGlu-γGlu-γGlu-Palmitoyl])STWS[Aib]RRK(Ac)-NH2 [peptide of SEQ ID NO: 85] : 92
Ac-LEGREKVRAK(Ac)IA[Aib]EGK([TTDS-TTDS-TTDS-γGlu-γGlu-γGlu-Palmitoyl])STFS[αMeK]RAK(Ac)-NH2 [peptide of SEQ ID NO: 90] : 97
Ac-LEGREKVRAK(Ac)I[Aib][Aib]EGK([TTDS-TTDS-TTDS-γGlu-γGlu-γGlu-Palmitoyl])STW[Aib]KRAK(Ac)-NH2 [peptide of SEQ ID NO: 35] : 91

Can you give me EMax, OVCAR 5 cells (cAMP) for all of these, one by one?
1. Ac-LEGREKVRAK(Ac)I[Aib][Aib]EGK([TTDS-TTDS-TTDS-γGlu-γGlu-γGlu-Stearoyl])STFS[Aib]RKK(Ac)-NH2 [peptide of SEQ ID NO: 61]
2. Ac-LEGRELVRAK(Ac)I[Aib][Aib]EGK([TTDS-TTDS-TTDS-γGlu-γGlu-γGlu-Palmitoyl])STWS[Aib]RRK(Ac)-NH2 [peptide of SEQ ID NO: 37]
3. Ac-LEGREKVRA[Cit]I[Aib][Aib]EGK([TTDS-TTDS-TTDS-γGlu-γGlu-γGlu-Palmitoyl])STFS[αMeK]RAK(Ac)-NH2 [peptide of SEQ ID NO: 12]
4. Ac-LEGRELVRAK(Ac)I[Aib][Aib]EGK([TTDS-TTDS-TTDS-γGlu-γGlu-γGlu-Palmitoyl])STFS[αMeK]RAK(Ac)-NH2 [peptide of SEQ ID NO: 23]
5. Ac-LEGRERVRAK(Ac)I[Aib][Aib]EGK([TTDS-TTDS-TTDS-TTDS-γGlu-γGlu-γGlu-Palmitoyl])STWS[Aib]RRK(Ac)-NH2 [peptide of SEQ ID NO: 75]
6. Ac-LEGREKVRAK(Ac)I[Aib][Aib]EGK([TTDS-TTDS-TTDS-γGlu-γGlu-γGlu-γGlu-Myristoyl])STFS[αMeK]RAK-NH2 [peptide of SEQ ID NO: 97]
7. Ac-LEGREKVRAK(Ac)I[Aib]IEGK([TTDS-TTDS-TTDS-TTDS-γGlu-γGlu-γGlu-Palmitoyl])STWS[Aib]RKK(Ac)-NH2 [peptide of SEQ ID NO: 74]

Result:
97
98
90
92
97
98
94

From: patent US20190233494A1
